- TESTED SYSTEM: androgen receptor (Homo sapiens, UniProt P10275, T878A)
- Construct: host or cells: LNCaP.FGC
- Sequence (P10275 whole entry T878A): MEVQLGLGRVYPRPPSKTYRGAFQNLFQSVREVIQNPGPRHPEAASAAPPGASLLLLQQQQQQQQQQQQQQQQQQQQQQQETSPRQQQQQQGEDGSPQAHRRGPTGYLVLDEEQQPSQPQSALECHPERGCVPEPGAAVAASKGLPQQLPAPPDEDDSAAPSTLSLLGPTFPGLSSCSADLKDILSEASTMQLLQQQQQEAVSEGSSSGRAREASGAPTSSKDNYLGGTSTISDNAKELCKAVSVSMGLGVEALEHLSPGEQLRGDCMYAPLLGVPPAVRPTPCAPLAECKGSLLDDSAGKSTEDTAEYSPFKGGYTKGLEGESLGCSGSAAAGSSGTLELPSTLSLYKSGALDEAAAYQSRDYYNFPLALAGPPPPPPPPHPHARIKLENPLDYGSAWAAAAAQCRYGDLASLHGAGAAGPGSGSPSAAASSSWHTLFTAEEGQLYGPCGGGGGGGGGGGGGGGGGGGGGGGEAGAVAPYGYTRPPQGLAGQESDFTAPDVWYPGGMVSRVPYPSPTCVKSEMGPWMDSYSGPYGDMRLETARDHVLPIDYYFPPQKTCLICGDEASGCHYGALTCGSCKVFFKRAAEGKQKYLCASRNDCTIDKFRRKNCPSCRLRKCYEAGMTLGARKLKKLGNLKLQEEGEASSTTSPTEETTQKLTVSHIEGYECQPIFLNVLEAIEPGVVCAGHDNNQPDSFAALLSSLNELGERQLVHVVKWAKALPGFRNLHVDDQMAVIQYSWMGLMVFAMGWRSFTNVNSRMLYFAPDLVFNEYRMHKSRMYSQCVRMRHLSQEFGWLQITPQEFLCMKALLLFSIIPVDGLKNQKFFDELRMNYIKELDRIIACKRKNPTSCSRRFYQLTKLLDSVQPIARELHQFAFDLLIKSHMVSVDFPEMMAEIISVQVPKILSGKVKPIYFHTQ
- Sequence (Q96SW2 whole entry partner): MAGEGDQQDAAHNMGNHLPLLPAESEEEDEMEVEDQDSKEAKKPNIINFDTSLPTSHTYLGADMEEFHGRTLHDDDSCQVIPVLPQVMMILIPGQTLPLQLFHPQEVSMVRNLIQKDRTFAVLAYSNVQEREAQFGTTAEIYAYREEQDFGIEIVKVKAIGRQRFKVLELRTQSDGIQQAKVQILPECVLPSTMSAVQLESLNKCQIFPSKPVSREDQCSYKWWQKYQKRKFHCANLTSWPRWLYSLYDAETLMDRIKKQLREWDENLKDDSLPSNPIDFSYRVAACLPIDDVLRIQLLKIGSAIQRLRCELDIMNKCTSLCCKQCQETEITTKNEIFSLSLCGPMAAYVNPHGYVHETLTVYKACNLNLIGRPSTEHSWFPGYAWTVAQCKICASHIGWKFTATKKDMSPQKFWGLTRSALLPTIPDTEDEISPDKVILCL
- EXPERIMENT SUMMARY: Androgen receptor degradation assay using Western blot analysis
- Assay type: cell-based
- CONDITIONS: 24 h, read-out: Androgen Receptor Remaining (%), LNCaP.FGC cells, 100 nM, 24 hr, normalized to GAPDH, untreated cells = 100%
MEASURE NAME: remaining activity at 0.1 µM (%)
Answers are plain numbers, in %.

Sample answers from the record:
{"COMPOUND": "CCn1c2c(c3ccc(OCCCN4CCN(c5ccc(C(=O)N[C@H]6C(C)(C)[C@H](Oc7ccc(C#N)c(Cl)c7)C6(C)C)cn5)CC4)cc31)C(=O)N(C1CCC(=O)NC1=O)C2=O (some centres unmarked)", "MEASURE NAME": "remaining activity at 0.1 µM", "UNITS OF MEASURE": "%", "REPORTED MEASUREMENT": 63}
{"COMPOUND": "N#Cc1ccc(O[C@H]2CC[C@H](NC(=O)c3ccc(N4CCN(CCCOc5ccc6c7c(n(CO)c6c5)C(=O)N(C5CCC(=O)NC5=O)C7=O)CC4)nn3)CC2)cc1Cl (some centres unmarked)", "MEASURE NAME": "remaining activity at 0.1 µM", "UNITS OF MEASURE": "%", "REPORTED MEASUREMENT": 20}
{"COMPOUND": "CCn1c2c(c3ccc(OCCCC4CCN(c5ccc(C(=O)N[C@H]6CC[C@H](N(C)c7ccc(C#N)c(Cl)c7)CC6)nn5)CC4)cc31)C(=O)N(C1CCC(=O)NC1=O)C2=O (some centres unmarked)", "MEASURE NAME": "remaining activity at 0.1 µM", "UNITS OF MEASURE": "%", "REPORTED MEASUREMENT": 77}

Provide each entry's remaining activity at 0.1 µM from the list below.
1. CCn1c2c(c3ccc(OCCN4CCCN(c5ccc(C(=O)N[C@H]6CC[C@H](N(C)c7ccc(C#N)c(Cl)c7)CC6)nn5)CC4)cc31)C(=O)N(C1CCC(=O)NC1=O)C2=O (some centres unmarked)
2. CCn1c2c(c3ccc(OCCN4CCN(c5ccc(C(=O)N[C@H]6CC[C@H](Oc7ccc(C#N)c(Cl)c7)CC6)cc5)CC4)cc31)C(=O)N(C1CCC(=O)NC1=O)C2=O (some centres unmarked)

A.
1. 34
2. 59

* * *

- TESTED SYSTEM: androgen receptor (Homo sapiens, UniProt P10275, T878A)
- Construct: host or cells: LNCaP.FGC
- EXPERIMENT SUMMARY: Androgen receptor degradation assay using Western blot analysis
- Assay type: cell-based
- CONDITIONS: 24 h, read-out: Androgen Receptor Remaining (%), LNCaP.FGC cells, 100 nM, 24 hr, normalized to GAPDH, untreated cells = 100%
MEASURE NAME: remaining activity at 0.1 µM (%)
Answers are plain numbers, in %.

{"MOLECULE": "CCn1c2c(c3ccc(OCCCN4CCC5(C4)CN(c4ccc(C(=O)N[C@H]6CC[C@H](Oc7ccc(C#N)c(Cl)c7)CC6)nn4)C5)cc31)C(=O)N(C1CCC(=O)NC1=O)C2=O (stereo partly shown) [Compound 160]", "MEASURE NAME": "remaining activity at 0.1 µM", "UNITS OF MEASURE": "%", "REPORTED MEASUREMENT": 17}
{"MOLECULE": "CCn1c2c(c3ccc(OCC(=O)N4CC5(CCN(c6ccc(C(=O)N[C@H]7CC[C@H](N(C)c8ccc(C#N)c(Cl)c8)CC7)nn6)C5)C4)cc31)C(=O)N(C1CCC(=O)NC1=O)C2=O (stereo partly shown) [Compound 146]", "MEASURE NAME": "remaining activity at 0.1 µM", "UNITS OF MEASURE": "%", "REPORTED MEASUREMENT": 62}
{"MOLECULE": "CCn1c2c(c3ccc(OCCN4CCC(C5CCN(c6ccc(C(=O)N[C@H]7CC[C@H](N(C)c8ccc(C#N)c(Cl)c8)CC7)nn6)CC5)CC4)cc31)C(=O)N(C1CCC(=O)NC1=O)C2=O (stereo partly shown) [Compound 166]", "MEASURE NAME": "remaining activity at 0.1 µM", "UNITS OF MEASURE": "%", "REPORTED MEASUREMENT": 47}

Field: remaining activity at 0.1 µM. Fill in for each record below.
1. CCn1c2c(c3ccc(OCC(=O)N4CCCN(c5ccc(C(=O)N[C@H]6CC[C@H](N(C)c7ccc(C#N)c(Cl)c7)CC6)nn5)CC4)cc31)C(=O)N(C1CCC(=O)N(CO)C1=O)C2=O (stereo partly shown) [Compound 130]
2. CCn1c2c(c3ccc(OCC(=O)N4CCC5(CC4)CN(c4ccc(C(=O)N[C@H]6CC[C@H](Oc7ccc(C#N)c(Cl)c7)CC6)nn4)C5)cc31)C(=O)N(C1CCC(=O)N(CO)C1=O)C2=O (stereo partly shown) [Compound 122]
3. CC(C)n1c2c(c3cc(OCCN4CCN(c5ccc(C(=O)N[C@H]6C(C)(C)[C@H](Oc7ccc(C#N)c(Cl)c7)C6(C)C)cc5)CC4)ccc31)C(=O)N(C1CCC(=O)NC1=O)C2=O (stereo partly shown) [Compound 17]
4. CCn1c2c(c3ccc(OCC(=O)N4CCN(c5ccc(C(=O)N[C@H]6CC[C@H](N(C)c7ccc(C#N)c(Cl)c7)CC6)nn5)CC4)cc31)C(=O)N(C1CCC(=O)NC1=O)C2=O (stereo partly shown) [Compound 125]
5. CCn1c2c(c3ccc(OCCN4CCN(c5cnc(C(=O)N[C@H]6CC[C@H](Oc7ccc(C#N)c(Cl)c7)CC6)cn5)CC4)cc31)C(=O)N(C1CCC(=O)NC1=O)C2=O (stereo partly shown) [Compound 62]
6. CCn1c2c(c3ccc(OCC(=O)N4CC5(CCN(c6ccc(C(=O)N[C@H]7CC[C@H](Oc8ccc(C#N)c(Cl)c8)CC7)nn6)CC5)C4)cc31)C(=O)N(C1CCC(=O)N(CO)C1=O)C2=O (stereo partly shown) [Compound 126]

A.
51
33
127
57
65
58

Q. # query: remaining activity at 0.1 µM | item CCn1c2c(c3ccc(OCCOC4CCC5(CC4)CN(c4ccc(C(=O)N[C@H]6CC[C@H](N(C)c7ccc(C#N)c(Cl)c7)CC6)nn4)C5)cc31)C(=O)N(C1CCC(=O)NC1=O)C2=O (stereo partly shown) [Compound 156] | system: androgen receptor (Homo sapiens, UniProt P10275, T878A)
A. 37
